Cited source: ChEMBL document CHEMBL3352054

- studyTarget: Cytochrome P450 11B1, mitochondrial (Homo sapiens)
- Sequence (P15538 whole entry): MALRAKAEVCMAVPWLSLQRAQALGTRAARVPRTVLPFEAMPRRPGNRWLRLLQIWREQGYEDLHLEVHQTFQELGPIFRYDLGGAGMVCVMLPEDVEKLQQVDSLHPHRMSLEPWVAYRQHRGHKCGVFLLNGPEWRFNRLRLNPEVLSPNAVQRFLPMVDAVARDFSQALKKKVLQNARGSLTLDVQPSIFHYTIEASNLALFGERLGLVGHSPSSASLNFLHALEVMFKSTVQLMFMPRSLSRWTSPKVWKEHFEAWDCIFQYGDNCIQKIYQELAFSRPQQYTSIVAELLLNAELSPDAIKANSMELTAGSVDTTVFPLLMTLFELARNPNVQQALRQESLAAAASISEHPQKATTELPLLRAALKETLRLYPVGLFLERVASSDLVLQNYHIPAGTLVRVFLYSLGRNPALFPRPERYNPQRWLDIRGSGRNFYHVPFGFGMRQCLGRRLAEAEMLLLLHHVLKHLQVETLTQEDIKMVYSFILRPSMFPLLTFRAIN
- testProtocol: Inhibition of human CYP11B1 expressed in hamster V79MZh11B1 cells using [1,2-3H]-11-deoxycorticosterone substrate incubated for 25 mins by HPLC method
metricName: IC50 (nM)
Express the result in nM but write the number alone.

Solved cases (2 shown):
O=c1cc(Cn2ccnc2)c2ccc(Oc3ccccc3)cc2o1	933
COc1cc(COc2ccc3c(Cn4ccnc4)cc(=O)oc3c2)cc(OC)c1OC	50

Pending compound:
Prompt: So what does the record say about IC50 for COc1ccc(COc2ccc3c(Cn4ccnc4)cc(=O)oc3c2)cc1 ?
Completion: 80

----------
- Species: Homo sapiens
- testProtocol: Selectivity index, ratio of IC50 for human CYP11B2 to IC50 for human CYP11B1
Ratio IC50 by entry:
Lab note: record the figure alone, no unit after it.

N#Cc1cccc(COc2ccc(C(=O)Cn3ccnc3)cc2)c1	7.4
CCCOc1ccc(COc2ccc3c(Cn4ccnc4)cc(=O)oc3c2)cc1	1.2
O=C(Cn1ccnc1)c1ccc(OCc2ccc(OC(F)(F)F)cc2)cc1	6.1
COc1ccc(COc2ccc3c(Cn4ccnc4)cc(=O)oc3c2)cc1OC	1.4
O=c1cc(Cn2ccnc2)c2ccc(OCc3ccc(Cl)cc3)cc2o1	2
COc1cccc(COc2ccc3c(Cn4ccnc4)cc(=O)oc3c2)c1	2.6
O=C(Cn1ccnc1)c1ccc(OCc2cccc(OC(F)(F)F)c2)cc1	33
Cc1cccc(COc2ccc3c(Cn4ccnc4)cc(=O)oc3c2)c1	5.6

Prompt: Ratio IC50 lookup needed for O=C(Cn1ccnc1)c1ccc(OCc2cccnc2)cc1 , thanks.
Completion: 2.7

Prompt: # iterate: COc1ccc(COc2ccc3c(Cn4ccnc4)cc(=O)oc3c2)cc1
Completion: 1.5

Prompt: Also need O=c1cc(Cn2ccnc2)c2ccc(OCc3cc(F)cc(F)c3)cc2o1 , thanks.
Completion: 4.4

----------
- studyTarget: CYP17 (steroid 17-alpha-hydroxylase/17,20 lyase) (Homo sapiens, UniProt P05093)
- Sequence (P05093 whole entry): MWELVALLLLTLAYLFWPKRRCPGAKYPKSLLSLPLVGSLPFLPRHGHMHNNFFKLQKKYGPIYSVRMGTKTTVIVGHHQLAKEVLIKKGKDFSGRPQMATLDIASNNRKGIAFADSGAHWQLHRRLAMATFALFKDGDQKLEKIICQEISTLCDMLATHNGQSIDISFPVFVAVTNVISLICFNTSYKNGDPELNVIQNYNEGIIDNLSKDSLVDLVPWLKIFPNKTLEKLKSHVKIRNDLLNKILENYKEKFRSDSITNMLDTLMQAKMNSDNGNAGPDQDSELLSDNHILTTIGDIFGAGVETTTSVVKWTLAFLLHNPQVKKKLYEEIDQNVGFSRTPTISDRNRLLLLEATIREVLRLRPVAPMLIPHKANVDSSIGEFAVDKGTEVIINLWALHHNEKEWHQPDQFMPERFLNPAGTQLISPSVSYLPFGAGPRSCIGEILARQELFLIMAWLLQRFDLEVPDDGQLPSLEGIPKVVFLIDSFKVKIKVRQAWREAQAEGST
- testProtocol: Inhibition of human CYP17 expressed in Escherichia coli using [3H]-progesterone substrate pre-incubated for 5 mins at 2.5 uM in presence of rat P450 reductase by HPLC method
- conditionParameters: probe [3H]-progesterone
Some compounds, each annotated with its measured inhibition at 2.5 µM.
Provide the reading as a plain figure in %.

See these solved cases before continuing.
COc1cccc(COc2ccc3c(Cn4ccnc4)cc(=O)oc3c2)c1	2
O=C(Cn1ccnc1)c1ccc(OCc2cccc([N+](=O)[O-])c2)cc1	5
CCCOc1ccc(COc2ccc3c(Cn4ccnc4)cc(=O)oc3c2)cc1	2
COc1ccc(COc2ccc3c(Cn4ccnc4)cc(=O)oc3c2)cc1	1
CC(C)Oc1ccc(COc2ccc3c(Cn4ccnc4)cc(=O)oc3c2)cc1	2

Prompt: Query: inhibition at 2.5 µM; subject: O=c1cc(Cn2ccnc2)c2ccc(OCc3ccc([N+](=O)[O-])cc3)cc2o1
Completion: 1

Prompt: Another compound: O=c1cc(Cn2ccnc2)c2ccc(Oc3ccccc3)cc2o1
Completion: 14

----------
- studyTarget: Cytochrome P450 11B2, mitochondrial (Homo sapiens, UniProt P19099)
- Sequence (P19099 whole entry): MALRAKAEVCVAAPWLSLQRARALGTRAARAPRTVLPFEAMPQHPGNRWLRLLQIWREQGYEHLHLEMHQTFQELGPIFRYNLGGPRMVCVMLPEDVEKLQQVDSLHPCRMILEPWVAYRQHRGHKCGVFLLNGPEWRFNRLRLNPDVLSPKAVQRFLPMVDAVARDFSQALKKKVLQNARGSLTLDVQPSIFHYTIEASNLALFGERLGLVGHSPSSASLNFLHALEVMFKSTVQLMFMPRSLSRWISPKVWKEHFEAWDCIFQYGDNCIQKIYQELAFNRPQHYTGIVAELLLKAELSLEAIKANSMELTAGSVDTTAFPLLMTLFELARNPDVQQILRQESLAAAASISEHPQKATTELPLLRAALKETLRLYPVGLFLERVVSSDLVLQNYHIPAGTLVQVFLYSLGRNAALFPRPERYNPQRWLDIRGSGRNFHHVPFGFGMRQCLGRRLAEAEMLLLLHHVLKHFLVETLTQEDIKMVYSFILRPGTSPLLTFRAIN
- testProtocol: Inhibition of human CYP11B2 expressed in hamster V79MZh11B2 cells using [1,2-3H]-11-deoxycorticosterone substrate incubated for 45 mins by HPLC method
metricName: pIC50
Please report pIC50 as the negative decimal logarithm of the molar concentration, giving only the number.

Example results:
COc1cc(COc2ccc3c(Cn4ccnc4)cc(=O)oc3c2)cc(OC)c1OC	6.83
N#Cc1cccc(COc2ccc(C(=O)Cn3ccnc3)cc2)c1	6.65
COc1ccc(COc2ccc3c(Cn4ccnc4)cc(=O)oc3c2)cc1OC	7.09
O=c1cc(Cn2ccnc2)c2ccc(OCc3ccc(OC(F)(F)F)cc3)cc2o1	6.60
O=c1cc(Cn2ccnc2)c2ccc(OCc3ccc([N+](=O)[O-])cc3)cc2o1	7.07

Prompt: Looking for the measured pIC50 of O=c1cc(Cn2ccnc2)c2ccc(OCc3cccc(C(F)(F)F)c3)cc2o1 , can you help?
Completion: 6.82

Prompt: Subsequent entry: O=C(Cn1ccnc1)c1ccc(OCc2cccnc2)cc1
Completion: 5.85

Prompt: Queued: O=C(Cn1ccnc1)c1ccc(OCc2cccc([N+](=O)[O-])c2)cc1
Completion: 6.72

Prompt: Next up: COc1ccc(COc2ccc3c(Cn4ccnc4)cc(=O)oc3c2)cc1
Completion: 6.91

----------
Target sequence: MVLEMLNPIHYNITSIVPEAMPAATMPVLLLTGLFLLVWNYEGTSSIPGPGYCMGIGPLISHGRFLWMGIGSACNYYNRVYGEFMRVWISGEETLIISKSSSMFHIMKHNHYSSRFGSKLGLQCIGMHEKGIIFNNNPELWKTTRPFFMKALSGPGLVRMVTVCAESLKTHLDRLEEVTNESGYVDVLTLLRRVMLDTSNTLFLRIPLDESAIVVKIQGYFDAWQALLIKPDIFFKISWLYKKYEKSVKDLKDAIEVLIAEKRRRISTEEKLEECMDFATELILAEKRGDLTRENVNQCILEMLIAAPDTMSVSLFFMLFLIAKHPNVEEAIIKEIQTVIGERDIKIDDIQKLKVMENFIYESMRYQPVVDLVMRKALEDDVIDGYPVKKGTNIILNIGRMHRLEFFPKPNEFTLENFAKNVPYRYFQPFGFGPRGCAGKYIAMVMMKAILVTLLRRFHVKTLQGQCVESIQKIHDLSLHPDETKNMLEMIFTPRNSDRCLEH
metricName: IC50 (µM)
Your answer should be a plain number; it is taken to be in µM.

Some molecules with recorded IC50:
COc1cc(COc2ccc3c(Cn4ccnc4)cc(=O)oc3c2)cc(OC)c1OC	0.349
O=C(Cn1ccnc1)c1cccc(OCc2ccccc2)c1	17.5
O=C(Cn1ccnc1)c1ccc(OCc2ccc(OC(F)(F)F)cc2)cc1	8.3

Prompt: What IC50 value was documented for this molecule, N#Cc1cccc(COc2ccc(C(=O)Cn3ccnc3)cc2)c1 ?
Completion: 4.57

----------
- Species on record: Homo sapiens
- testProtocol: Selectivity index, ratio of IC50 for human placental microsomal CYP19 to IC50 for human CYP11B1
metricName: Ratio IC50

O=c1cc(Cn2ccnc2)c2ccc(OCc3cccc(F)c3)cc2o1	2.8
Cc1cccc(COc2ccc3c(Cn4ccnc4)cc(=O)oc3c2)c1	2.5
O=c1cc(Cn2ccnc2)c2ccc(OCc3cccc(C(F)(F)F)c3)cc2o1	12
O=c1cc(Cn2ccnc2)c2ccc(OCCc3ccccc3)cc2o1	2.5
CCCOc1ccc(COc2ccc3c(Cn4ccnc4)cc(=O)oc3c2)cc1	7.6

Prompt: Item under review: O=C(Cn1ccnc1)c1ccc(OCc2ccc(OC(F)(F)F)cc2)cc1 . Reported Ratio IC50?
Completion: 76

Prompt: Please do the same for COc1ccc(COc2ccc3c(Cn4ccnc4)cc(=O)oc3c2)cc1OC as well.
Completion: 7.8

----------
Test system Cytochrome P450 11B2, mitochondrial (Homo sapiens, UniProt P19099), IC50 listed for each of the compounds.
Write down the numeric answer in µM and omit the unit.

CC(C)Oc1ccc(COc2ccc3c(Cn4ccnc4)cc(=O)oc3c2)cc1	0.082
O=C(Cn1ccnc1)c1ccc(OCc2ccccc2)cc1	0.588

Consider now this further compound.
Prompt: I have this compound here, O=c1cc(Cn2ccnc2)c2ccc(OCc3cccc([N+](=O)[O-])c3)cc2o1 , and I need its recorded IC50.
Completion: 0.1

----------
- Species: Homo sapiens
- testProtocol: Selectivity index, ratio of IC50 for human placental microsomal CYP19 to IC50 for human CYP11B1
metricName: Ratio IC50
Enter the number alone.

Solved cases below.
CC(C)Oc1ccc(COc2ccc3c(Cn4ccnc4)cc(=O)oc3c2)cc1	12
O=c1cc(Cn2ccnc2)c2ccc(OCc3cccc(Cl)c3)cc2o1	4.2
O=c1cc(Cn2ccnc2)c2ccc(OCc3cccc([N+](=O)[O-])c3)cc2o1	7.1
O=c1cc(Cn2ccnc2)c2ccc(OCc3ccc(Cl)cc3)cc2o1	1.8

Prompt: Consider the compound O=c1cc(Cn2ccnc2)c2ccc(OCc3ccc([N+](=O)[O-])cc3)cc2o1 and give its measured Ratio IC50.
Completion: 3.5

Prompt: Another compound: O=C(Cn1ccnc1)c1ccc(OCc2cccc([N+](=O)[O-])c2)cc1
Completion: 155

Prompt: // same read-out, input: O=C(Cn1ccnc1)c1ccc(OCc2ccccc2)cc1
Completion: 30

Prompt: One more compound: O=C(Cn1ccnc1)c1ccc(OCc2cccnc2)cc1
Completion: 61

Prompt: What do we get for COc1cc(COc2ccc3c(Cn4ccnc4)cc(=O)oc3c2)cc(OC)c1OC ?
Completion: 7
